# Tested on: T-47D breast
# protocol.description: NCI-60 one-dose screen, 48 h
# condition.summary: 10 µM unless noted
This is part of a sample that, as a whole, favours compounds with a hit. Of some 83,000 tested, about 20% had one in any assay. Active and inactive are the calls of the source. How the source made its calls: active means growth percent below 10; inactive means the rest.
// classify into 1 = active, -1 = inactive

// below: answered compounds
NCCCn1c2c(c3cc(-c4ccn[nH]4)ccc3c1=O)C(=O)c1ccccc1-2; -1
Oc1c(CCl)cc(Cl)cc1Cc1cc(Cl)cc(Cc2cc(Cl)cc(CCl)c2O)c1O; -1
COc1ccc(Cl)c([N+](=O)[O-])c1; -1

Now for another entry.
Q: Which outcome was entered for the compound S=c1ssnc1-c1cc2ccccc2o1 in this test?
A: -1

====

# System: MDA-MB-231 breast
# protocol.description: NCI-60 one-dose screen, 48 h (100 = growth as untreated, 0 = no growth, -100 = all killed)
# condition.summary: 10 µM unless noted
About 83,000 compounds went through this panel and 20% of them were active in at least one assay; those are over-represented in the sample as a whole.
endpoint.name: growth (%)
One number for each entry, in %.

CCCCc1nc(Cl)c(C2CC(c3ccc(Cl)cc3)=NN2c2cc(Cl)cc(Cl)c2)[nH]1 (stereo unspecified); 80.3
COc1ccc(/C=C/C(=O)C(CC2CCC2)C(=O)/C=C/c2ccc(OC)c(OC)c2)cc1OC; 6.65
COc1cc(-c2cn(-c3ccc(Cl)c(Cl)c3)c(=O)[nH]2)cc(OC)c1OC; 71.5
COc1cccc2c1-c1ccccc1C2=O; 29.6

For each entry beneath this line, provide reported growth.
1. O=c1c2ccccc2n(CC(O)CN2CCCC2)c2c(Br)cccc12 (stereo unspecified)
2. CN(C)C1=NCCN1

A:
1: 129; 2: 105

====

# System: NCI-H322M lung
# protocol.description: NCI-60 one-dose screen, 48 h (100 = growth as untreated, 0 = no growth, -100 = all killed)
# condition.summary: 10 µM unless noted
The panel holds about 83,000 compounds, 20% with a hit somewhere; the sample as a whole holds those more often.
For each of the compounds below, state its growth.
One number for each entry, in %.

Below are 4 compounds. Give each one its growth.
1. CNS(=O)(=O)c1cccc(-c2ccc3c4c(n(C)c(=O)c3c2)-c2ccccc2C4=O)c1
2. COc1ccc(-c2nnc(N3CCN(C(=O)CN4CCN(c5ccccc5)CC4)CC3)nc2-c2ccc(OC)cc2)cc1
3. Cc1nc2sc(C(=O)Nc3cccc(Cl)c3C)c(N)c2cc1C(C)O (stereo unspecified)
4. Cc1nnc(/N=C2\NC(=O)/C(=C/c3ccsc3)S2)s1

A:
1. 92.8
2. 77.3
3. 55.6
4. 92.2

Report growth for each item below.
1. N#Cc1ccc(Oc2ccc3ccc(=O)oc3c2)cc1
2. CC(=O)Oc1c2c(nc3c1c1ccccc1n3Cc1ccccc1)-c1ccccc1C2

A:
[111, 92.2]

====

# Test system: MDA-MB-435 melanoma
# protocol.description: NCI-60 one-dose screen, 48 h (100 = growth as untreated, 0 = no growth, -100 = all killed)
# condition.summary: 10 µM unless noted
Compounds without any hit were thinned out: in the full panel of roughly 83,000, 20% have a hit.
Please mark YES if the recorded growth is equal to or greater than 30%, and NO if it falls below.

Q: Identify whether the reported growth of the following compound is 30% or greater: CCC[S@@](=O)c1ccc2nc(NC(=O)OC)[nH]c2c1
A: NO

Q: # check: growth of Cc1nccc2c3ccc(OCc4cn(-c5ccc(Br)cc5)nn4)cc3n(CC(C)C)c12 is greater than or equal to 30%
A: YES
